Attribution: patent US20070178531A1

- Target Desc: T1, Mouse Id2: Histidine (mouse, UniProt P41136 1-134, limits assumed)
- T1 construct: Fusion protein made in E. coli from vector pGW07; also called m-Id2: His; not shown: His tag
- T1 sequence (looked up): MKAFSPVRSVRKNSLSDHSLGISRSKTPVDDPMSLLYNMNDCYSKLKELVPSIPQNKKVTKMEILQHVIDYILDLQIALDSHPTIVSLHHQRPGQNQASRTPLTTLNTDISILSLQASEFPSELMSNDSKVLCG
- Test Protocol: ELISA, Ab 0.000 µg/ml (blank)
Test Readout: A450 (A450)
Answers are plain numbers, in A450.

Please review the following examples before continuing.
Binder	Test Readout	Quantitative Readout
rabbit monoclonal anti-mouse/human Id3, clone #BCH-4/#16-1 (antibody, V domains shown, Rabbit IgG from a rabbit hybridoma; also called m/h Id3 MoAb 16-1) VH: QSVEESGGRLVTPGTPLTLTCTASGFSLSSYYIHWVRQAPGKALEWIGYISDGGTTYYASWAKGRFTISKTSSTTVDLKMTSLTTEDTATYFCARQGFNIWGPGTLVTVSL VL: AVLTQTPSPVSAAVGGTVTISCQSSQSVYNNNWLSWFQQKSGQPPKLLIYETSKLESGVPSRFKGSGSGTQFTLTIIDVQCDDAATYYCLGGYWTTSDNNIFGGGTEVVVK	A450	0.046
rabbit monoclonal anti-mouse/human Id3, clone #BCH-4/#17-3 (antibody, V domains shown, Rabbit IgG from a rabbit hybridoma; also called m/h Id3 MoAb 17-3; BCH-3/#17-3) VH: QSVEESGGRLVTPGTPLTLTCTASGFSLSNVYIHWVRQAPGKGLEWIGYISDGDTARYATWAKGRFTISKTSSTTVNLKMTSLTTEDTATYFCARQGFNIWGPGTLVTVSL VL: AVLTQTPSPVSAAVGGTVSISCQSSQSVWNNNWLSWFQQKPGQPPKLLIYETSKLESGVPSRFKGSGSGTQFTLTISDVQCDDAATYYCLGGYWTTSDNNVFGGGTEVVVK	A450	0.048
rabbit monoclonal anti-mouse/human Id3, clone #BCH-4/#42-1 (antibody, V domains shown, Rabbit IgG from a rabbit hybridoma; also called m/h Id3 MoAb 42-1) VH: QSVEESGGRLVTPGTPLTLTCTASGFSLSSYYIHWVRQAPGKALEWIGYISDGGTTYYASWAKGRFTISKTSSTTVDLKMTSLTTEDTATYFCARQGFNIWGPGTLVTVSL VL: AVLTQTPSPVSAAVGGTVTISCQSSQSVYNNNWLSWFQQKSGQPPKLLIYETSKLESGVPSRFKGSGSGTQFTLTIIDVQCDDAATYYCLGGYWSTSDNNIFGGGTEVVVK	A450	0.048

Hi! Can you tell me A450 for each of these binders?
1. rabbit monoclonal anti-mouse/human Id3, clone #BCH-4/#6-1 (antibody, V domains shown, Rabbit IgG from a rabbit hybridoma; also called m/h Id3 MoAb 6-1) VH: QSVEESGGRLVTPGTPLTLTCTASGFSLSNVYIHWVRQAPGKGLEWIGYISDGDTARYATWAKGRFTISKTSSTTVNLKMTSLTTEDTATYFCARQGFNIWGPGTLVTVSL VL: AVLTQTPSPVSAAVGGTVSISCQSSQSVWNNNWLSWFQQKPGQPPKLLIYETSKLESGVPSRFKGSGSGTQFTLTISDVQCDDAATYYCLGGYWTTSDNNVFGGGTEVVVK
2. rabbit monoclonal anti-human Id3, clone #BCH-4/#3-3 (antibody, V domains shown, Rabbit IgG from a rabbit hybridoma; also called h Id3 MoAb 3-3) VH: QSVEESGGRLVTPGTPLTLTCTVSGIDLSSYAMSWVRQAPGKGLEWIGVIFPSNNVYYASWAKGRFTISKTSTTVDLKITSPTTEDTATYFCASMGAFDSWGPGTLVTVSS VL: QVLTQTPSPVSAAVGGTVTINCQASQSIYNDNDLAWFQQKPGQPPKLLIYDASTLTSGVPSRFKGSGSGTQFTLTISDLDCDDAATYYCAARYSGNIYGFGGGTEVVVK

(A)
[0.044, 0.048]
